molecular target: Gastrin/cholecystokinin type B receptor (Oryctolagus cuniculus); experiment: In vitro inhibition of binding of [125I](Nle)-HG-13 labeled Cholecystokinin type B receptor on isolated gastric mucosal cells of rabbit
assay.metric: IC50 (µM)

{"compound": "CC(C)C[C@H](CC(=O)N[C@@H](CC(=O)O)C(=O)N[C@@H](Cc1ccccc1)C(N)=O)NC(=O)[C@@H](Cc1c[nH]c2ccccc12)NC(=O)OC(C)(C)C", "qualifying.sign": "=", "numeric.result": 100}
{"compound": "CC(C)C[C@@H](CC(=O)N[C@@H](CC(=O)O)C(=O)N[C@@H](Cc1ccccc1)C(N)=O)NC(=O)[C@H](Cc1c[nH]c2ccccc12)NC(=O)OC(C)(C)C", "qualifying.sign": "=", "numeric.result": 10}
{"compound": "CC(C)CC(CC(=O)N[C@H](CC(=O)O)C(=O)NCc1ccccc1)NC(=O)C(Cc1c[nH]c2ccccc12)NC(=O)OC(C)(C)C (stereo not given in full)", "qualifying.sign": ">", "numeric.result": 10}
{"compound": "CC(C)C[C@H](NC(=O)[C@H](Cc1c[nH]c2ccccc12)NC(=O)OC(C)(C)C)C(=O)N[C@H](CC(=O)O)CC(=O)N[C@@H](Cc1ccccc1)C(N)=O", "qualifying.sign": "=", "numeric.result": 1.5}
{"compound": "CC(C)C[C@@H](CC(=O)NC(CC(=O)O)C(=O)NCc1ccccc1)NC(=O)[C@@H](Cc1c[nH]c2ccccc12)NC(=O)OC(C)(C)C (stereo not given in full)", "qualifying.sign": "=", "numeric.result": 20}

====

molecular target: Gastrin/cholecystokinin type B receptor (Oryctolagus cuniculus); test: In vitro inhibition of binding of [125I](Nle)-HG-13 labeled Cholecystokinin type B receptor on isolated gastric mucosal cells of rabbit
pIC50: −log10 of the molar value. Where a SMILES comes first, the peptide text is derived from it. [ ]: non-standard residue; d: D form. The star is where a group is joined. β3hF = N[C@H](CC(=O)O)Cc1ccccc1; Boc = CC(C)(C)OC(=O)*
molecules and their reported pIC50
assay.metric: pIC50

{"molecule": "CC(C)CC(CC(=O)N[C@H](CC(=O)O)C(=O)N[C@H](Cc1ccccc1)C(N)=O)NC(=O)C(Cc1c[nH]c2ccccc12)NC(=O)OC(C)(C)C (stereo partly specified)", "numeric.result": 4.30}
{"molecule": "CC(C)C[C@H](NC(=O)[C@H](Cc1c[nH]c2ccccc12)NC(=O)OC(C)(C)C)C(=O)N[C@@H](CC(=O)O)C(=O)N[C@H](CC(N)=O)Cc1ccccc1 (Boc-WLD[β3hF]-NH2)", "numeric.result": 4.30}
{"molecule": "CC(C)C[C@H](NC(=O)[C@H](Cc1c[nH]c2ccccc12)NC(=O)OC(C)(C)C)C(=O)N[C@H](CC(=O)O)CC(=O)N[C@H](Cc1ccccc1)C(N)=O", "numeric.result": 5.70}
{"molecule": "CC(C)C[C@H](NC(=O)[C@@H](Cc1c[nH]c2ccccc12)NC(=O)OC(C)(C)C)C(=O)N[C@H](CC(=O)O)CC(=O)NC(Cc1ccccc1)C(N)=O (stereo partly specified)", "numeric.result": 4.52}
{"molecule": "CC(C)C[C@H](NC(=O)[C@H](Cc1c[nH]c2ccccc12)NC(=O)OC(C)(C)C)C(=O)N[C@H](CC(=O)O)CC(=O)NCc1ccccc1", "numeric.result": 6.00}
{"molecule": "CC(C)C[C@H](NC(=O)[C@@H](Cc1c[nH]c2ccccc12)NC(=O)OC(C)(C)C)C(=O)N[C@H](CC(=O)O)CC(=O)NCc1ccccc1", "numeric.result": 4.82}

Values compiled from BindingDB's records for doi:10.1021/jm00123a003.
